Test system: MDA-MB231/ATCC
assayText: NCI-60 screening, one-dose (10 µM) and five-dose, SRB
Type: cell-based
runConditions: 10 μM; MDA-MB231/ATCC, Breast Cancer
measurementLabel: Growth percentage (%)
Answers are plain numbers, in %.

Would you please look over these solved cases?
> print(dat)
                                   compound  readoutnumber
1  COc1ccc(/C=C/C(=O)c2sc(SCC(=O)N3CCN(c4cc5c(cc4F)c(=O)c(C(=O)O)cn5C4CC4)CC3)nc2C)cc1 [Compound 4j]           94.8
2  Cc1nc(SCC(=O)N2CCN(c3cc4c(cc3F)c(=O)c(C(=O)O)cn4C3CC3)CC2)sc1C(=O)/C=C/c1ccc(N(C)C)cc1 [Compound 4i]           73.1
3  Cc1nc(SCC(=O)N2CCN(c3cc4c(cc3F)c(=O)c(C(=O)O)cn4C3CC3)CC2)sc1C(=O)/C=C/c1ccc(Br)cc1 [Compound 4f]           98.6
4  Cc1nc(SCC(=O)N2CCN(c3cc4c(cc3F)c(=O)c(C(=O)O)cn4C3CC3)CC2)sc1C(=O)/C=C/c1ccc(F)cc1 [Compound 4e]          101.1
5  Cc1nc(SCC(=O)N2CCN(c3cc4c(cc3F)c(=O)c(C(=O)O)cn4C3CC3)CC2)sc1C(=O)/C=C/c1ccc([N+](=O)[O-])cc1 [Compound 4h]           94.5

Need Growth percentage for each of these compounds.
1. Cc1nc(SCC(=O)N2CCN(c3cc4c(cc3F)c(=O)c(C(=O)O)cn4C3CC3)CC2)sc1C(=O)/C=C/c1cccc([N+](=O)[O-])c1 [Compound 4g]
2. Cc1nc(SCC(=O)N2CCN(c3cc4c(cc3F)c(=O)c(C(=O)O)cn4C3CC3)CC2)sc1C(=O)/C=C/c1ccc(Cl)cc1 [Compound 4c]

Result:
1: 92.4; 2: 100.1

====

Assignment: determine reported activity at 10 µM for the given compounds.
Test system: HOP-92
assayText: NCI-60 screening, one-dose (10 µM) and five-dose, SRB
Format: cell-based, human
runConditions: Homo sapiens; 10 μM; HOP-92, Non-Small-Cell Lung Cancer; read-out: Growth percentage
One number for each entry, in %.

Would you please look over these solved cases?
> print(dat)
                                entrysmiles  measuredtarget  readoutnumber
1  Cc1nc(SCC(=O)N2CCN(c3cc4c(cc3F)c(=O)c(C(=O)O)cn4C3CC3)CC2)sc1C(=O)/C=C/c1ccc(Br)cc1          HOP-92            115
2  Cc1nc(SCC(=O)N2CCN(c3cc4c(cc3F)c(=O)c(C(=O)O)cn4C3CC3)CC2)sc1C(=O)/C=C/c1cccc(Cl)c1          HOP-92            101
3  COc1ccc(/C=C/C(=O)c2sc(SCC(=O)N3CCN(c4cc5c(cc4F)c(=O)c(C(=O)O)cn5C4CC4)CC3)nc2C)cc1          HOP-92            105
4  Cc1nc(SCC(=O)N2CCN(c3cc4c(cc3F)c(=O)c(C(=O)O)cn4C3CC3)CC2)sc1C(=O)/C=C/c1cccc([N+](=O)[O-])c1          HOP-92           68.4
5  Cc1nc(SCC(=O)N2CCN(c3cc4c(cc3F)c(=O)c(C(=O)O)cn4C3CC3)CC2)sc1C(=O)/C=C/c1ccc(N(C)C)cc1          HOP-92           91.7
6  Cc1nc(SCC(=O)N2CCN(c3cc4c(cc3F)c(=O)c(C(=O)O)cn4C3CC3)CC2)sc1C(=O)/C=C/c1ccc([N+](=O)[O-])cc1          HOP-92            126

Let us move to another entry and its activity at 10 µM.
Ask: Please tell me: activity at 10 µM of COc1cccc(/C=C/C(=O)c2sc(SCC(=O)N3CCN(c4cc5c(cc4F)c(=O)c(C(=O)O)cn5C4CC4)CC3)nc2C)c1OC , system HOP-92?
Result: 122

Source: paper PMC12655637
